Test system: LOX IMVI melanoma
Experiment: NCI-60 one-dose screen, 48 h (100 = growth as untreated, 0 = no growth, -100 = all killed)
Conditions: 10 µM
The panel holds about 83,000 compounds, 20% with a hit somewhere; the sample as a whole holds those more often.
observable: growth (%)

| compound | observable | assay-value |
| --- | --- | --- |
| CCOC(=O)CCCC(=O)OCC | growth | 98.9 |
| N#CC1(Nc2ccc3c4c(cccc24)CC3)CCCCC1 | growth | 97.6 |
| COc1ccc(C(C)C=O)cc1 (centres undefined) | growth | 105 |
| CCOC(=O)/C(C#N)=C/c1cccc(C)c1 | growth | 94.8 |
| O=C(N/N=C\c1cc(Br)cc(Br)c1O)N/N=C/c1cc(Br)cc(Br)c1O | growth | 50.5 |
| O=c1cc(-c2ccccc2)[nH]c2c1CCCC2 | growth | 37.4 |
| CC(=O)c1sc2c(c1OC(=O)c1ccc(Cl)cc1Cl)c(=O)n(-c1ccccc1)c(=S)n2-c1ccccc1 | growth | -18.9 |
| CN(C)CCC(=O)c1ccc(O)cc1 | growth | 97.2 |
| C/C(=C\c1cc(Cl)ccc1OCC(=O)O)[N+](=O)[O-] | growth | 88.6 |

###

Tested on: DU-145 prostate
Test: NCI-60 one-dose screen, 48 h (100 = growth as untreated, 0 = no growth, -100 = all killed)
Conditions: 10 µM
Compounds without any hit were thinned out: in the full panel of roughly 83,000, 20% have a hit.

| molecule | assay-system | units-symbol | growth |
| --- | --- | --- | --- |
| CCCCC/C=N/Nc1nc(C)cc(=O)[nH]1 | DU-145 prostate | % | 114 |
| O=S(=O)(Cc1ccccc1)c1ccccc1 | DU-145 prostate | % | 107 |
| CC(=O)OC1CC2C(C)(C)OC3CC(=O)OCC32C2CCC3(C)C(=CCC3c3ccoc3)C12C (configuration not stated) | DU-145 prostate | % | 92.5 |
| Nc1ccc(N=Nc2ccc(O)cc2)c(N)n1 | DU-145 prostate | % | 79.3 |
| O=C(OCC(O)C1OC(c2ccccc2)OC(COC(=O)c2ccccc2)C1O)c1ccccc1 (configuration not stated) | DU-145 prostate | % | 118 |
| CCOC(=O)c1coc(C(=O)OCC)c1C(=O)OCC | DU-145 prostate | % | 116 |
| Oc1ccccc1-c1nnco1 | DU-145 prostate | % | 99.7 |
| COc1ccc(NC(=O)CCl)cc1 | DU-145 prostate | % | 94.6 |
| CCCNC(=O)c1ccc(S(N)(=O)=O)cc1 | DU-145 prostate | % | 109 |
| c1c(-c2cc(C3CC3)[nH]n2)n[nH]c1C1CC1 | DU-145 prostate | % | 111 |
| CC1(C)N=C(N)N=C(N)N1c1ccc(Cl)cc1 | DU-145 prostate | % | 55.2 |
| O=C(N/N=C/c1ccccc1O)Nc1nn[nH]n1 | DU-145 prostate | % | 116 |
| CN(C)c1ccc(S(=O)(=O)O)cc1 | DU-145 prostate | % | 110 |
| CC(C)=CC(=O)OC(=O)C=C(C)C | DU-145 prostate | % | 101 |
| COc1cc(OC)c2ccc(=O)oc2c1 | DU-145 prostate | % | 102 |
| CNS(=O)(=O)c1ccc(Cl)c(Cl)c1 | DU-145 prostate | % | 111 |
| c1ccc2c(c1)Sc1ccccc1S2 | DU-145 prostate | % | 108 |
